# Test system: ROCK2 (Homo sapiens (Human))
# Sequence (O75116 whole entry, species assumed): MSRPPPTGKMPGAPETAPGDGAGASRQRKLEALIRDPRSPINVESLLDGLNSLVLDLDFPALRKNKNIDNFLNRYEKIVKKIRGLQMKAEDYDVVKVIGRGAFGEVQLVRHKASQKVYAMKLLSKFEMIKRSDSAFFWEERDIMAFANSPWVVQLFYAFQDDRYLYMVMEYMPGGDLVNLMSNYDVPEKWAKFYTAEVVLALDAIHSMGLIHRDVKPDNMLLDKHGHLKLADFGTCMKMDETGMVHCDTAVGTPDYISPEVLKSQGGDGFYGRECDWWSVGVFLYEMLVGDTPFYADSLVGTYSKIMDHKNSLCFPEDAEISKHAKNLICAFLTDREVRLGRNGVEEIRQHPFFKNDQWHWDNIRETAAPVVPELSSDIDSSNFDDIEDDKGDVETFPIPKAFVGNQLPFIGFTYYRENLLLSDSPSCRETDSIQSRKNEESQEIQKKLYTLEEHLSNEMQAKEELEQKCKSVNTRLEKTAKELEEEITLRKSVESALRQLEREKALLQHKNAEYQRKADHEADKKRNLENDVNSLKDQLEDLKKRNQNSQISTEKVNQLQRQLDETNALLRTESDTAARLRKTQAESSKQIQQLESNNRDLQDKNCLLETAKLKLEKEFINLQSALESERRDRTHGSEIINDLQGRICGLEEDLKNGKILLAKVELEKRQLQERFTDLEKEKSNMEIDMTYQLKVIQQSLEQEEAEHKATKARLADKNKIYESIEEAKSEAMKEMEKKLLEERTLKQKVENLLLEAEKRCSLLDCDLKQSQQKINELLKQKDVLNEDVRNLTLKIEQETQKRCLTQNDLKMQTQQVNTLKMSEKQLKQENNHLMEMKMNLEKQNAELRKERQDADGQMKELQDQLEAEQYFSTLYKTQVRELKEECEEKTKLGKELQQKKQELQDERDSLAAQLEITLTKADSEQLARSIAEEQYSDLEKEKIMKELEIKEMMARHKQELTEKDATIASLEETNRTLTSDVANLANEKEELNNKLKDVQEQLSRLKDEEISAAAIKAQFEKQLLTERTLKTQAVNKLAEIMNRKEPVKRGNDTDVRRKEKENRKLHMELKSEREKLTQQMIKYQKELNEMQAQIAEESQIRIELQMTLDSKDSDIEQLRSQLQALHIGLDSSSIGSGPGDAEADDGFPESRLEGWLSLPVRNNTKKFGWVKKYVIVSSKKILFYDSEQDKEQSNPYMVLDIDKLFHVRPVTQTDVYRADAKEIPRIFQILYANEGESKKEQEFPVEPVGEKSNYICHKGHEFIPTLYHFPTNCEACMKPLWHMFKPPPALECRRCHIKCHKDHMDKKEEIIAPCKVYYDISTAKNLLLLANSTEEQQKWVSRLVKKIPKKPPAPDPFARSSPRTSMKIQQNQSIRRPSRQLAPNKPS
# Protocol notes: ROCK2 kinase inhibition assay (FITC peptide substrate, LABCHIP 3000 Reader)
# Format: biochemical
# Experimental parameters: 5 μM ATP, 1.5 μM peptide substrate
pIC50: −log10 of the molar value.
pIC50 overview
Recorded metric: pIC50

{"Smiles code": "COc1cccc(CN2C(=O)N(c3ncc(-c4cn[nH]c4)c(OC)n3)CC23CCN(C(=O)CC(C)C)CC3)c1", "Test system": "ROCK2 (Homo sapiens (Human))", "Observed value": "7.52 to 8.52"}
{"Smiles code": "COc1cccc(CN2C(=O)N(c3ccc(-c4cn[nH]c4)cn3)CC23CCN(C(=O)C2COC2)CC3)c1", "Test system": "ROCK2 (Homo sapiens (Human))", "Observed value": "7.52 to 8.52"}
{"Smiles code": "CCc1nc(N2CC3(CCN(C(=O)C(F)F)CC3)N(Cc3cccc(OC)c3)C2=O)ccc1-c1cn[nH]c1", "Test system": "ROCK2 (Homo sapiens (Human))", "Observed value": "> 8.52"}
{"Smiles code": "COC(=O)N1CCC2(CC1)CN(c1ccc(-c3cn[nH]c3)cc1)C(=O)N2Cc1cccc(OC)c1", "Test system": "ROCK2 (Homo sapiens (Human))", "Observed value": "> 8.52"}

----------
# Test system: UniProtKB O75116

{"Molecule": "CN(C)C1CN(C(=O)c2cccc(CN3C(=O)N(c4ccc(-c5cn[nH]c5)cc4)CC34CCOCC4)c2)C1 [Example 46]", "IC50": "3 to 30 nM"}
{"Molecule": "COc1cc(F)cc(CN2C(=O)N(c3ccc(-c4cn[nH]c4)cc3)CC23CCN(CCO)CC3)c1 [Example 144]", "IC50": "< 3 nM"}
{"Molecule": "CC(=O)N1CCC2(CC1)CN(c1ccc(-c3cn[nH]c3)cc1)C(=O)N2Cc1cccc(F)c1C [Example 82]", "IC50": "3 to 30 nM"}
{"Molecule": "COc1cccc(CN2C(=O)N(c3ccc(-c4cn[nH]c4)cc3)CC23CCN(CC(C)(C)O)CC3)c1 [Example 138]", "IC50": "< 3 nM"}
{"Molecule": "COc1cccc(NC2C(=O)N(c3ccc(-c4cn[nH]c4)cc3)CC23CN(C(=O)C(C)(C)O)C3)c1 (stereo not drawn) [Example 246]", "IC50": "250 to 3000 nM"}
{"Molecule": "CCc1nc(N2CC3(CCN(CCO)CC3)N(Cc3cccc(F)c3C)C2=O)ccc1-c1cn[nH]c1 [Example 149]", "IC50": "< 3 nM"}
{"Molecule": "O=C1N(c2ccc(-c3cn[nH]c3)cc2)CC2(CCNCC2)N1Cc1cc(F)cc(F)c1 [Example 68]", "IC50": "3 to 30 nM"}
{"Molecule": "COc1cccc(CN2C(=O)N(c3ncc(-c4cn[nH]c4)c(OC)n3)CC23CCN(C(=O)C2CC(F)(F)C2)CC3)c1 [Example 209]", "IC50": "3 to 30 nM"}
{"Molecule": "COc1cccc(CN2C(=O)N(c3ccc(-c4cn[nH]c4)cn3)CC23CCN(CC(C)O)CC3)c1 (stereo not drawn) [Example 160]", "IC50": "3 to 30 nM"}
{"Molecule": "CNC(=O)N1CCC2(CC1)CN(c1ccc(-c3cn[nH]c3)cc1)C(=O)N2Cc1cccc(OC)c1 [Example 91]", "IC50": "< 3 nM"}
{"Molecule": "COc1cccc(CN2C(=O)N(c3ccc(-c4cn[nH]c4)c(OC)n3)CC23CCN(C(=O)C2COC2)CC3)c1 [Example 223]", "IC50": "< 3 nM"}
{"Molecule": "COc1cccc(CN2C(=O)N(c3ccc(-c4cn[nH]c4)cc3)CC23CCN(CC(C)C)CC3)c1 [Example 124]", "IC50": "< 3 nM"}

----------
pIC50: −log10 of the molar value.
A set of compounds tested on ROCK2 (Homo sapiens (Human)), with measured pIC50:

{"Smiles code": "Cc1c(F)cccc1CN1C(=O)N(c2ccc(-c3cn[nH]c3)cc2)CC12CCN(CC(F)F)CC2", "Test system": "ROCK2 (Homo sapiens (Human))", "pIC50": "> 8.52"}
{"Smiles code": "Cc1c(F)cccc1CN1C(=O)N(c2ccc(-c3cn[nH]c3)cc2)CC12CCN(CCO)CC2", "Test system": "ROCK2 (Homo sapiens (Human))", "pIC50": "> 8.52"}
{"Smiles code": "COc1cccc(CN2C(=O)N(c3ncc(-c4cn[nH]c4)c(OC)n3)CC23CCN(C(=O)[C@@H]2CC2(F)F)CC3)c1", "Test system": "ROCK2 (Homo sapiens (Human))", "pIC50": "7.52 to 8.52"}
{"Smiles code": "O=C1N(c2ccc(-c3cn[nH]c3)cc2)CC2(CCNCC2)N1CC1CCCCC1", "Test system": "ROCK2 (Homo sapiens (Human))", "pIC50": "7.52 to 8.52"}

----------
pIC50 overview
# Test system: ROCK2 (Homo sapiens (Human))
pIC50: −log10 of the molar value.

{"Compound": "COc1cccc(CN2C(=O)N(c3ccc(-c4cn[nH]c4)cc3)CC23CCN(CC2CC2)CC3)c1", "Test system": "ROCK2 (Homo sapiens (Human))", "pIC50": "> 8.52"}
{"Compound": "COc1nc(N2CC3(CCN(CC(C)(C)O)CC3)N(Cc3cccc(F)c3C)C2=O)ccc1-c1cn[nH]c1", "Test system": "ROCK2 (Homo sapiens (Human))", "pIC50": "> 8.52"}
{"Compound": "COc1cc(F)cc(CN2C(=O)N(c3ccc(-c4cn[nH]c4)cc3)CC23CCN(CC(F)F)CC3)c1", "Test system": "ROCK2 (Homo sapiens (Human))", "pIC50": "> 8.52"}
{"Compound": "O=C(NCC(F)(F)F)c1cccc(CN2C(=O)N(c3ccc(-c4cn[nH]c4)cc3)CC23CCOCC3)c1", "Test system": "ROCK2 (Homo sapiens (Human))", "pIC50": "> 8.52"}
{"Compound": "CCc1nc(N2CC3(CCN(CCO)CC3)N(Cc3cccc(OC)c3)C2=O)ccc1-c1cn[nH]c1", "Test system": "ROCK2 (Homo sapiens (Human))", "pIC50": "> 8.52"}
{"Compound": "COc1cccc(CN2C(=O)N(c3ccc(-c4cn[nH]c4)cc3)CC23CCNCC3)c1", "Test system": "ROCK2 (Homo sapiens (Human))", "pIC50": "> 8.52"}
{"Compound": "COc1cccc(CN2C(=O)N(c3ccc(-c4cn[nH]c4)c(OC)n3)CC23CCN(C(=O)CO)CC3)c1", "Test system": "ROCK2 (Homo sapiens (Human))", "pIC50": "> 8.52"}
{"Compound": "COc1cccc(NC2C(=O)N(c3ccc(-c4cn[nH]c4)cc3)CC23CCN(CCO)CC3)c1 (centres unmarked)", "Test system": "ROCK2 (Homo sapiens (Human))", "pIC50": "5.52 to 6.60"}

----------
pIC50: −log10 of the molar value. Structures can show the parent of a compound that is named as a salt.
A set of molecules tested on ROCK2 (Homo sapiens (Human), UniProt O75116), with measured pIC50:

{"Molecule": "COc1cccc(CN2C(=O)N(c3ccc(-c4cn[nH]c4)cc3)CC23CCN(CCc2ccccc2)CC3)c1 [Example 125]", "pIC50": "7.52 to 8.52"}
{"Molecule": "COc1cccc(CN2C(=O)N(c3ccc(-c4cn[nH]c4)c(OC)n3)CC23CCN(CC(C)O)CC3)c1 (stereo not shown) [Example 147]", "pIC50": "> 8.52"}
{"Molecule": "COc1cccc(CN2C(=O)N(c3ccc(-c4cn[nH]c4)cc3)CC23CCN(C(=O)C(C)(C)O)CC3)c1 [Example 192]", "pIC50": "> 8.52"}
{"Molecule": "COc1cccc(CN2C(=O)N(c3ccc(-c4cn[nH]c4)cc3)CC23CCN(C(=O)[C@H](C)O)CC3)c1 [Example 177]", "pIC50": "> 8.52"}
{"Molecule": "COc1cccc(CN2C(=O)N(c3ccc(-c4cn[nH]c4)cc3)CC23CCN(C(=O)C2CCC2)CC3)c1 [Example 172]", "pIC50": "> 8.52"}
{"Molecule": "COc1cccc(CN2C(=O)N(c3ccc(-c4cn[nH]c4)cn3)CC23CCN(C2COC2)CC3)c1 [Example 237]", "pIC50": "> 8.52"}
{"Molecule": "COc1cc(F)cc(CN2C(=O)N(c3ccc(-c4cn[nH]c4)cc3)CC23CCNCC3)c1 [Example 58, TFA]", "pIC50": "> 8.52"}
{"Molecule": "O=C(NCCO)c1cccc(CN2C(=O)N(c3ccc(-c4cn[nH]c4)cc3)CC23CCOCC3)c1 [Example 36]", "pIC50": "> 8.52"}
{"Molecule": "O=C1N(c2ccc(-c3cn[nH]c3)cc2)CC2(CCOCC2)N1Cc1cc(F)cc(F)c1 [Example 24]", "pIC50": "7.52 to 8.52"}
{"Molecule": "CCc1nc(N2CC3(CCN(CC(F)F)CC3)N(Cc3cc(F)cc(OC)c3)C2=O)ccc1-c1cn[nH]c1 [Example 129]", "pIC50": "7.52 to 8.52"}
{"Molecule": "COc1cccc(CN2C(=O)N(c3ccc(-c4cn[nH]c4)cn3)CC23CCN(CC(C)(C)O)CC3)c1 [Example 161]", "pIC50": "> 8.52"}
{"Molecule": "COc1nc(N2CC3(CCN(C(=O)C(C)(C)CO)CC3)N(Cc3cccc(F)c3C)C2=O)ccc1-c1cn[nH]c1 [Example 228]", "pIC50": "> 8.52"}
{"Molecule": "COc1cccc(CN2C(=O)N(c3ccc(-c4cn[nH]c4)cc3)CC23CCN(CC(=O)N(C)C)CC3)c1 [Example 170]", "pIC50": "> 8.52"}
{"Molecule": "COc1cccc(CN2C(=O)N(c3ccc(-c4cn[nH]c4)cc3)CC23CCN(CC2CCOCC2)CC3)c1 [Example 233]", "pIC50": "> 8.52"}
{"Molecule": "COc1cccc(NC2C(=O)N(c3ccc(-c4cn[nH]c4)cn3)CC23CCN(C(=O)CCN2CCCC2=O)CC3)c1 (stereo not shown) [Example 259]", "pIC50": "5.52 to 6.60"}
{"Molecule": "CCOC(=O)N1CCC2(CC1)CN(c1ncc(-c3cn[nH]c3)c(OC)n1)C(=O)N2Cc1cccc(OC)c1 [Example 112]", "pIC50": "7.52 to 8.52"}
